Reference source for all entries: patent US7534809B2

- assay-method-text: Metabolic stability in monkey liver microsomes
- Assay type: in vitro ADME
- measurement-context: 10 μM, 1 mg/mL microsomes, 37° C., 2 hrs
Reported Metabolic stability in liver microsomes % Parent after 2 hrs, Monkey values are given for each entry in this list.
Express it in %; write the number only.

Observe how each entry below is paired with its result.
[
  {
    "compound": "COP(=O)(c1cc(C)cc(C)c1)c1c(C(=O)NCc2cc[n+]([O-])cc2)[nH]c2ccc(Cl)c(F)c12 (centres unmarked)",
    "data-value": 63
  },
  {
    "compound": "COP(=O)(C1=C(C(=O)NCc2ccncc2)N=C2C=CC(Cl)=C(F)C21)c1cc(C)cc(C)c1 (centres unmarked)",
    "data-value": 1
  },
  {
    "compound": "COP(=O)(C1=C(C(=O)NCc2ccncc2)N=C2C=CC(Cl)=CC21)c1cc(C)cc(F)c1 (centres unmarked)",
    "data-value": 3
  },
  {
    "compound": "COP(=O)(c1cc(C)cc(C)c1)c1c(C(=O)NCc2cc[n+]([O-])cc2)[nH]c2ccc(Cl)cc12 (centres unmarked)",
    "data-value": 24
  }
]

Next, consider the following compound.
Just so you know, measured Metabolic stability in liver microsomes % Parent after 2 hrs, Monkey for COP(=O)(c1cc(C)cc(F)c1)c1c(C(=O)NCc2cc[n+]([O-])cc2)[nH]c2ccc(Cl)cc12 (centres unmarked) came out at 41
